assay: Lipophilicity determination by RP-HPLC (capacity factor k / log k); format: physicochemical; conditions: C18, MeOH 70% / H2O 30%, isocratic
# key: entry, value: log k
No unit in the answer, only the number.

Recorded log k, per entry:
Cc1ccc(/C=C/c2nc3ccccc3o2)cc1
1.1226
COc1ccc(/C=C/c2nc3ccccc3o2)cc1
0.9382
CSc1ccc(/C=C/c2nc3ccccc3o2)cc1
1.1225
C(=C\c1nc2ccccc2o1)/c1ccc2c(c1)CCO2
0.9397
COc1ccc(/C=C/C=C/c2nc3ccccc3o2)cc1
1.1394

Qu. Return reported log k; argument: COc1ccccc1/C=C/c1nc2ccccc2o1
Ans. 0.9325

Qu. Return reported log k; argument: CCc1ccc(/C=C/c2nc3ccccc3o2)o1
Ans. 1.0702

Qu. Return reported log k; argument: C(=C\c1nc2ccccc2o1)/c1ccccc1 [Compound 1, 2-[(E)-2-Phenylethenyl]-1,3-benzoxazole]
Ans. 0.9409

Qu. Return reported log k; argument: FC(F)(F)c1ccc(/C=C/c2nc3ccccc3o2)cc1
Ans. 1.1317
